Test system: TK-10
experimental protocol: NCI tumour cell line growth inhibition, 48 h
Activity calls are given as the source filed them. No stated cut-off is given here; in the data, active = GI50 up to about 1.1 µM and inactive = higher.
measured metric: GI50

Answered cases to consult:
- compound: "CCOC(=O)/C(=N/Nc1ccc(Cl)cc1)N1C(=S)N(C)N=C(C)C=C1S"
  study target: "TK-10"
  GI50: "30.5 µM (inactive)"
- compound: "O=C1NC2(O)c3ccccc3C(=O)C2(O)N1c1ccccc1 (centres undefined)"
  study target: "TK-10"
  GI50: "> 100 µM (inactive)"
- compound: "Clc1ccc(NCc2nnc(COc3ccc(OCc4nnc(CNc5ccc(Cl)cc5)o4)c(Cl)c3)o2)cc1"
  study target: "TK-10"
  GI50: "56.9 µM (inactive)"
- compound: "Cc1csc2nc(-c3ccc([N+](=O)[O-])cc3)c(/C=N/N=C(N)N)n12"
  study target: "TK-10"
  GI50: "1.92 µM (inactive)"
- compound: "COC(=O)c1ccc2c(c1)CCN2C(=O)c1cc2c(cc1Br)OCO2"
  study target: "TK-10"
  GI50: "2 µM (inactive)"

// sample `COC(=O)c1c(-c2ccccc2)c2sc3ccccc3n2c1N` , its GI50 was 54.3 µM (inactive)

Entry `CC(=O)n1nc(-c2ccccc2)n(/N=C/c2ccc([N+](=O)[O-])o2)c1=O` , GI50 reported as 11.5 µM (inactive)

Please fill in: GI50 reported for `C1CCCN(NC2=NCCO2)CC1` = > 100 µM (inactive)

Reported GI50 for CO[C@@H]1[C@@H](OC2OC(C)C(OC3CC(C)(O)C(OC(=O)CC(C)C)C(C)O3)C(N(C)C)C2O)[C@@H](CC=O)C[C@@H](C)C(=O)/C=C/C2O[C@H]2C[C@@H](C)OC(=O)C[C@H]1OC(C)=O (some centres undefined) was 24.9 µM (inactive)

---

We begin with a simple list: items and their reported GI50.
Test system: IGROV-1
experimental protocol: NCI tumour cell line growth inhibition, 48 h
Active and inactive are the calls of the source. No stated cut-off is given here; in the data, active = GI50 up to about 1.1 µM and inactive = higher.

Please review the following examples before continuing.
- molecule: "CC1(C)Oc2ccc3c(=O)c(-c4ccccc4)c(-c4ccccc4)oc3c2C1C(=O)O (stereo unspecified)"
  value observed: "> 100 µM (inactive)"
- molecule: "COC(=O)C1CCC(=S)N1C(=O)c1ccccc1 (stereo unspecified)"
  value observed: "> 100 µM (inactive)"
- molecule: "Cn1ccnc1Sc1ccc(/C=N\\NC(=O)c2cccc(F)c2)cc1[N+](=O)[O-]"
  value observed: "18.8 µM (inactive)"
- molecule: "COc1cc2ccnc(-c3n[nH]c4cc(OC)c(OC)cc34)c2cc1OC"
  value observed: "> 100 µM (inactive)"
- molecule: "N#Cc1c(O)c(/N=N/c2ccccc2F)c(=O)n2c1[nH]c1ccccc12"
  value observed: "74.8 µM (inactive)"

# GI50 (molecule: `CC1(C)N=c2c(ncn2N)=C(C(N)=O)N1` ) is > 100 µM (inactive)

Field GI50 (entry CC(=O)NC1C(OCc2ccccc2)OC(CO)C(O)C1OCC(=O)N1CCCC1C(=O)N[C@@H](CCC(=O)NCCCCNc1c2ccccc2nc2cccc([N+](=O)[O-])c12)C(N)=O (stereo partly specified) ) reads 14.8 µM (inactive)

Lab book: GI50 of `COC(=O)[C@H]1CO[C@H]2C/C(C)=C/CC/C(C)=C/CC[C@@]3(C)O[C@@H]3C[C@H]21` noted as 16 µM (inactive)

Please fill in: GI50 reported for COc1ccc(C2CC(c3c(O)ccc4ccccc34)=NN2C(C)=O)cc1OC (stereo unspecified) = 38.7 µM (inactive)

In plain terms, `CCO/C=N\C1=C(C#N)SC2=N/C(=C\c3ccco3)C(=O)N21` has a documented GI50 of > 100 µM (inactive)

According to the records, this molecule `COc1ccc(/C=N/NC(=O)NCCCN(C)C)cc1` displays GI50 of > 100 µM (inactive)

Noted for `Cc1nn(-c2ccccc2)c(C)c1/C=N/N=C1\SCC(=O)N1c1ccccc1` : its GI50 reads 32.3 µM (inactive)

According to the records, this molecule `CCN(CC)c1ccc(/C=C/C=C2C(=O)NC(=S)NC2=O)cc1` displays GI50 of > 100 µM (inactive)

---

Tested on: LOX IMVI
experimental protocol: NCI tumour cell line growth inhibition, 48 h
The source made the active and inactive calls. Rule as the data show it: active = GI50 up to about 1.1 µM and inactive = higher.
Choose the fitting class; nothing outside 1.0 = active, 0.0 = inactive is accepted.

Use these answered entries as a reference point.
- compound: "COc1cccc(-c2cc(O)c3c(C)cc(C)nc3n2)c1"
  assigned class: 1.0
- compound: "CC(c1cccc2ccccc12)/[N+]([O-])=C/c1ccccc1 (stereo not given)"
  assigned class: 0.0

Check the results log: what was the call for `CC(=O)n1nc(-c2ccccc2)n(/N=C/c2ccc([N+](=O)[O-])o2)c1=O` ?
0.0

---

Test system: MDA-MB-231
experimental protocol: NCI tumour cell line growth inhibition, 48 h
Activity calls are given as the source filed them. Rule as the data show it: active = GI50 up to about 1.1 µM and inactive = higher.
measured metric: GI50

Solved entries (count: 5):
- compound: "Cn1c2ccccc2c2c(-c3ccccc3)cc3c(c21)C(=O)C=CC3=O"
  GI50: "2.43 µM (inactive)"
- compound: "COc1ccc2c(c1)/C(=C/CCN(C)C)c1ccccc1S2"
  GI50: "59 µM (inactive)"
- compound: "CC1(C)CCC2(C(=O)O)C(O)CC3(C)C(=CCC4C5(C)CCC(OC6OCC(O)C(O)C6OC6OCC(O)C(O)C6OC6OCC(O)C(OC7OC(CO)C(O)C(O)C7O)C6O)C(C)(C)C5CCC43C)C2C1 (centres undefined)"
  GI50: "> 100 µM (inactive)"
- compound: "C=CCn1c(=O)c(-c2ccccc2)c(O)c2ccccc21"
  GI50: "> 100 µM (inactive)"
- compound: "Cc1ccc(-c2cc(-c3ccc(Cl)cc3)nc(/N=C3\\C(=O)N(CN4CCCCC4)c4ccc(Cl)cc43)n2)cc1"
  GI50: "36.2 µM (inactive)"

Documented GI50 of CC(C)CCNC(=O)C(CC(C)C)NC(=O)[C@H]1O[C@@H]1C(=O)O (some centres undefined) : > 100 µM (inactive)

The reported GI50 of the compound `COC(=O)c1ccccc1/C=C1\Cc2ccc3c(c2C1=O)CCC3` was > 100 µM (inactive)

# GI50 (compound: `O=c1c2ccccc2n2c(-c3ccc(O)cc3)nnc2n1-c1ccccc1` ) is 17.1 µM (inactive)

Reported GI50 ( COC(=O)C1OC(O[C@H]2CC[C@]3(C)[C@H]4CC=C5[C@@H]6CC(C)(C)CC[C@]6(C(=O)OC6OCC(O)C(O)C6OC6OC(C)C(OC7OCC(O)C(O)C7O)C(OC7OCC(O)(CO)C7O)C6O)[C@H](O)C[C@@]5(C)[C@]4(C)CC[C@H]3C2(C)C)C(O)C(O)C1O (some centres undefined) ) = 2.32 µM (inactive)

---

System: BT-549
experimental protocol: NCI tumour cell line growth inhibition, 48 h
Calls of active or inactive are those of the source. Rule as the data show it: active = GI50 up to about 1.1 µM and inactive = higher.
measured metric: GI50

Reference set, count: 5
- compound: "Cn1c(=O)c2c(nc3n(Cc4ccccc4)c(=O)c(Br)cn23)n(C)c1=O"
  GI50: "> 100 µM (inactive)"
- compound: "Oc1ccc(Cn2c(-c3ccc(O)c(O)c3)nc3ccccc32)cc1O"
  GI50: "10.4 µM (inactive)"
- compound: "NS(=O)(=O)c1cc2c(cc1Cl)NC(Cc1ccccc1)NS2(=O)=O (centres undefined) [BENZYLHYDROCHLOROTHIAZIDE]"
  GI50: "> 100 µM (inactive)"
- compound: "O=c1cc(N2CCCC2)[nH]c(=O)n1-c1cccc(C(F)(F)F)c1"
  GI50: "> 100 µM (inactive)"
- compound: "CSC(SC)(C(=O)O)c1cc(-c2c(Cl)cccc2Cl)no1"
  GI50: "28.8 µM (inactive)"

For O=C(O)C1CCCCC1c1c2ccc(=O)cc-2oc2cc(O)ccc12 (centres undefined) the compound record lists GI50 as 47.6 µM (inactive)

Lab note: measured GI50 of `CCCCn1c(N)c(-c2nc3ccccc3o2)sc1=S` was 26.3 µM (inactive)

Reported GI50 for `Cc1c2ccccc2cc2cccc[n+]12` was 23.4 µM (inactive)

---

Tested on: SK-MEL-5
experimental protocol: NCI tumour cell line growth inhibition, 48 h
Activity calls are given as the source filed them. No stated cut-off is given here; in the data, active = GI50 up to about 1.1 µM and inactive = higher.
Listing of recorded GI50 by entry.

- compound: "O=C(/N=N/C(=O)OCc1ccccc1)OCc1ccccc1"
  GI50: "> 100 µM (inactive)"
- compound: "CCOP(=O)(C/C(=N/NC(C)(C)C)C(=O)Nc1nc2ccc(C)cc2s1)OCC"
  GI50: "> 100 µM (inactive)"
- compound: "Cc1nn(-c2ccccc2)c(C)c1/C=N/N=C1\\SCC(=O)N1c1ccccc1"
  GI50: "15 µM (inactive)"
- compound: "CC(c1cccc2ccccc12)/[N+]([O-])=C/c1ccccc1 (stereo unspecified)"
  GI50: "> 100 µM (inactive)"
- compound: "CN(C)c1ccc(/N=C2/NC(=N\\c3ccccc3)/C(=N/c3ccccc3)S2)cc1"
  GI50: "> 100 µM (inactive)"

// recorded GI50 for `CON(C)C(=O)CNC(=O)OCC1c2ccccc2-c2ccccc21` : 84.5 µM (inactive)
